System: OVCAR-5 ovarian
test-details: NCI tumour cell line growth inhibition, 48 h
endpoint-label: GI50

1) CCCCCCCCCNCCCCCCCCC | 1880 nM
2) O=[N+]([O-])c1ccc(-c2nc(N(CCO)CCO)c3ccccc3n2)o1 | 562 nM
3) C/C=C(\C)C(=O)N[C@H]1[C@@H](OC(C)=O)C[C@]2(C)C3CC[C@@]4(C)C(CC[C@@H]4C(C)N(C)C)C3CCC2[C@H]1O (some centres undefined) | 13800 nM
4) COC(=O)NC/C=C\c1nc(CC/C=C\C(=O)OC2CC3CC(=O)O[C@H](/C=C/CC(C)C)C[C@H]4CCC(C)C(C[C@H](OC)CC(C2)O3)O4)co1 (some centres undefined) | 877 nM

###

Tested on: SW-620 colon
test-details: NCI tumour cell line growth inhibition, 48 h
endpoint-label: TGI

1. NCCCC(=O)Nc1ccncc1 | > 100 µM
2. [N-]=[N+]=C(C(=O)OCC#CCOC(=O)C(=[N+]=[N-])S(=O)(=O)c1ccccc1)S(=O)(=O)c1ccccc1 | > 10 µM
3. COc1ccc(C[C@H]2NC(=O)/C=C/C[C@@H]([C@H](C)[C@H]3O[C@@H]3c3ccccc3)OC(=O)[C@H](CC(C)C)OC(=O)[C@H](C)CNC2=O)cc1 | > 0.0001 µM
4. COc1cc2c(c(OC)c1OC)-c1ccc(SC)c(=O)cc1[C@@H](NC(=O)c1ccc(OC(C)=O)cc1)CC2 | 31 µM
5. CC(C)=CCC/C(=C\CC/C(=C\CCc1ccoc1)C(=O)O)C(=O)O | > 100 µM
6. COc1cc2c(cc1OC)C1=Cc3ccc(OC)c(OC)c3C(C#N)N1CC2 (stereo not given) | > 100 µM
7. Nc1nc2cc(CNc3ccc(C(=O)O)cc3)ccc2nc1-c1ccccc1 | > 100 µM
8. CC(=O)Nc1nc(SCc2ccccc2)c2ncn(C(C)=O)c2n1 | > 100 µM
9. COc1ccc(OC)c(C(=O)/C=C/c2cc(O)c(O)cc2F)c1 | > 66.5 µM
10. COc1cc(NC(=O)c2cc(OC)c3ccn(C)c3c2)cc2c1C[C@]1(C)CC[C@@H](O)C(C)(C)[C@H]1O2 | > 100 µM
11. c1cc2c(cc1C(N1CCNCC1)N1CCNCC1)OCO2 | > 100 µM
12. O=C1c2cc([N+](=O)[O-])cnc2S(=O)(=O)N1c1ccc(Br)cc1 | > 100 µM
13. CC1(CCc2ccccc2)CC1(Br)Br (stereo not given) | > 100 µM
14. CN(NC(=O)CC(=O)NN(C)C(=S)c1ccccc1)C(=S)c1ccccc1 | > 100 µM
15. COC(=O)COc1ccc(/C=C2\N=C(c3ccccc3)N(c3cc(C(F)(F)F)ccc3Cl)C2=O)cc1 | > 100 µM
16. CC(C)=CC(C)C(C(O)CCC1(c2ccoc2)OCCO1)S(=O)(=O)c1ccccc1 (stereo not given) | > 100 µM
17. N#Cc1ccccc1NC(=O)/C(=N\NC(=O)c1ccncc1)C(c1cnc2ccc([N+](=O)[O-])cc2n1)[N+](=O)[O-] (stereo not given) | > 100 µM
18. N#CCN1CCCCCc2ccccc21 | > 100 µM
19. COc1ccc2c([nH]c3cc(O)c(C)cc32)c1C=O | > 25 µM
20. COC(=O)c1c(C)ccc2c(O)c3c(cc12)C(=O)c1c2c(cc(O)c1C3=O)C1(C)OC(C)(O2)C(O)C(N(C)C)C1O (stereo not given) | > 100 µM
21. O=C(Nc1ccc(Cl)cc1)c1cccc([N+](=O)[O-])c1O | > 100 µM
22. O=C(O)C(F)(F)C(F)(F)C(F)(F)C(F)(F)C(=O)O | > 100 µM
23. CC(C)(C)C(=O)Nc1ccccc1I(=O)=O | > 100 µM
24. CC1(C)NCCC[C@]2(C)[C@H]3C=CC4=C5C[C@](C)(CO)CC[C@]5(C)CC[C@@]4(C)[C@]3(C)CC[C@@H]12 | 18.8 µM
25. O=c1c(/C=C/c2c(O)ccc3ccccc23)nnc2sc(-c3cccc([N+](=O)[O-])c3)nn12 | > 100 µM
26. Nc1ccccc1/C=C\c1ccccc1 | > 100 µM
27. CCOC(=O)Cc1csc(/N=C2\NC(=O)/C(=C3\C(=O)N(C)c4ccccc43)S2)n1 | > 100 µM
28. CCCCCCCCCNCCCCCCCCC | 3.48 µM
29. NNC(=O)Cc1cccnc1 | > 100 µM
30. O=C(Nc1ccc(-n2cc(-c3ccncc3)c(-c3ccc(Cl)c(O)c3)n2)cc1)Nc1cc(C(F)(F)F)cc(C(F)(F)F)c1 | 4.44 µM
31. Cc1c(C#N)c2nnn(-c3ccc([N+](=O)[O-])cc3)c(=O)n2c1-c1ccccc1 | 51 µM
32. C=C1C[C@@H]2C/C=C/C(=O)C/C(C)=C\C=C\C(=O)O[C@H](C=O)C/C(C)=C/[C@H](C1)O2 | 15.7 µM
33. CC(=O)[C@H]1CC[C@H]2[C@@H]3CCC4=CC(=O)CC[C@]4(C)[C@H]3CC[C@]12C | > 100 µM
34. CC1(C)CC(=O)C2=C(C1)NC(SCC(=O)O)=C(C#N)C2c1ccc(Br)cc1 (stereo not given) | > 100 µM
35. COc1ccccc1C1=C2C(=O)N(C)C(c3ccccc3OC)=C2C(=O)N1C | > 100 µM
36. CC(C)(C)OC(=O)NC1CCCC1C(O)(C1=CCCC1)C1=CCCC1 (stereo not given) | > 100 µM
37. CSc1nc2c(c(=O)n1C)N=C(c1ccc(Cl)cc1)CC(c1ccccc1)N2 (stereo not given) | > 100 µM
38. Fc1ccc(Oc2nccc(-c3c(-c4ccc(F)cc4)ncn3C3CCNCC3)n2)cc1 | > 25 µM
39. OC12C3C4CC5C(C4[C@@H]1Br)C2[C@@](O)(c1c(F)c(F)c(F)c(F)c1F)C53 (stereo not given in full) | > 100 µM
40. Cc1cc(C)c(O)c(CNCCCCCCNCc2cc(C)cc(C)c2O)c1 | 3.56 µM

###

Tested on: TK-10 renal
test-details: NCI tumour cell line growth inhibition, 48 h
endpoint-label: TGI

1) NC(CCl)=NC1CN2CCC1CC2 (stereo not drawn) | > 100 µM
2) COC(=O)c1c(O)ccc2c1c1c(n2Cc2ccc(OC)cc2)C(=O)c2ccccc2C1=O | > 100 µM
3) COc1ccc(C2c3cc4c(cc3OC(NNC(N)=O)C2C)OCO4)cc1 (stereo not drawn) | > 100 µM
4) Cc1ncc([N+](=O)[O-])n1CCNS(=O)(=O)CCCn1ccnc1[N+](=O)[O-] | > 100 µM
5) O=C(O)c1c2c(c(C(=O)O)c3ccccc13)-c1ccccc1-2 | > 100 µM
6) O=c1c2ncn(C3CCCCO3)c2n(-c2ccccc2)c(=S)n1-c1ccccc1 (stereo not drawn) | 83 µM
7) COc1ccc2nc(-c3ccccc3)cc(Nc3ccc(C(C)=O)cc3)c2c1 | 17.2 µM
8) CC1=NC2(CCCCC2)N(Cl)C(=O)C1SC#N (stereo not drawn) | 35.1 µM
9) CCCc1ccc(S(=O)(=O)N[C@H]2CC[C@H]3[C@@H]4CCc5cc(O)ccc5[C@H]4CC[C@]23C)cc1 | 13.7 µM
10) CC(C)=CCC/C(=C\CC/C(=C\CCc1ccoc1)C(=O)O)C(=O)O | > 100 µM
11) CCCCCCCCCNCCCCCCCCC | 3.23 µM
12) CCSCC(=O)N1CCc2c([nH]c3ccccc23)C1=O | > 100 µM
13) c1nncn1C12C3C4C5C3C1C5C42 (stereo not drawn) | > 100 µM

###

Test system: NCI-H522 lung
test-details: NCI tumour cell line growth inhibition, 48 h; in the data active means GI50 below about 0.43 µM; inactive means the rest
Outcome codes: active, inactive

1) c1ccc(C(=NNc2nc3ccccc3o2)c2ccccn2)nc1 | active
2) COC(=O)COc1ccc(/C=C2\N=C(c3ccccc3)N(c3cc(C(F)(F)F)ccc3Cl)C2=O)cc1 | inactive
3) COc1ccc(CNc2nc3cc(N)cc(N)c3nc2-c2ccccc2)cc1OC | inactive
4) CCN(CC)CCOc1ccc(Nc2ncc3cc(-c4ccc(O)cc4)c(=O)n(C)c3n2)cc1 | inactive
5) CCCCCNC(=O)[C@@H]1CCCN2C(=O)CC[C@H](NC(=O)[C@H](Cc3ccc(OP(=O)(O)O)cc3)NC(C)=O)C(=O)N12 | inactive
6) NCCCC(=O)Nc1ccncc1 | inactive
7) Cc1cc(C)c(O)c(CNCCCCCCNCc2cc(C)cc(C)c2O)c1 | inactive
8) CCOC(=O)Cc1csc(/N=C2\NC(=O)/C(=C3\C(=O)N(C)c4ccccc43)S2)n1 | inactive
9) COc1cc(NC(=O)c2cc(OC)c3ccn(C)c3c2)cc2c1C[C@]1(C)CC[C@@H](O)C(C)(C)[C@H]1O2 | inactive
10) c1ccc2[nH]c(SSc3nc4ncncc4[nH]3)nc2c1 | active
11) N#CC1=C(N)NC(=S)NC12Nc1ccccc1O2 (centres undefined) | inactive
12) CC(=O)[CH-]C(=O)c1ccccc1.CC(=O)[CH-]C(=O)c1ccccc1.CC(=O)[CH-]C(=O)c1ccccc1.[Tl+3] | inactive
13) C/C=C(\C)C(=O)N[C@H]1[C@@H](OC(C)=O)C[C@]2(C)C3CC[C@@]4(C)C(CC[C@@H]4C(C)N(C)C)C3CCC2[C@H]1O (some centres undefined) | inactive
14) CCC1=C[C@@H]2CN(C1)Cc1c([nH]c3ccccc13)[C@@](C(=O)OC)(c1cc3c(cc1OC)N(C=O)[C@H]1[C@@](O)(C(=O)OC)[C@H](OC(C)=O)[C@]4(CC)[C@@H]5C[C@@H]5CN5CC[C@]31[C@@H]54)C2 | active
